# SUBJECT_OF_TEST: T1, Myc-LGR5 (human LGR5, predicted mature form aa21-907, N-terminal Myc tag), expressed on HEK293 cells (human, UniProt O75473 22-907)
# T1 construct: Residues 21-907 are counted on NP-003658
# T1 sequence: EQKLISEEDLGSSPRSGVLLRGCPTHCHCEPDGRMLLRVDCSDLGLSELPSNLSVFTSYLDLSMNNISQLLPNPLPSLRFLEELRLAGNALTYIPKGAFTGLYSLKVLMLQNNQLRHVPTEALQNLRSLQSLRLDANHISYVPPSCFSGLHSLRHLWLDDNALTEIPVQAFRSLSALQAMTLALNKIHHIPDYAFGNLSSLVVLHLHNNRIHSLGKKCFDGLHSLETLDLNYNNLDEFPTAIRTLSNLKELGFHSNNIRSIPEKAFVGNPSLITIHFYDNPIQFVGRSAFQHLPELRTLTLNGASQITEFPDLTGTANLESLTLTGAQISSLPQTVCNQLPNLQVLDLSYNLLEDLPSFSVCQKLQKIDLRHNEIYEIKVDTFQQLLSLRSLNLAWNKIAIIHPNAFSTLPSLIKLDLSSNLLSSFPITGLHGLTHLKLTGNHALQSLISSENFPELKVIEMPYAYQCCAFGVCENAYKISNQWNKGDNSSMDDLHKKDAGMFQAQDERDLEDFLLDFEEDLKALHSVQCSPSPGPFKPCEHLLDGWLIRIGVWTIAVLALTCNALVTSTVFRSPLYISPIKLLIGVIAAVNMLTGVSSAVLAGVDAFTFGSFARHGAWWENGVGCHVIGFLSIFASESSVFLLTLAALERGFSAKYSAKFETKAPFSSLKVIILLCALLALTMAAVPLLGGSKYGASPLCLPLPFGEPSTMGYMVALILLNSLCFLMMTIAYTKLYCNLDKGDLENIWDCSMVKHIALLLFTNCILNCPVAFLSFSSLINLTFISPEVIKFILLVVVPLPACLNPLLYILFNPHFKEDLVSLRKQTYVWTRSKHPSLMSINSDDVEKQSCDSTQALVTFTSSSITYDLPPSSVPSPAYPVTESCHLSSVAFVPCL
# PROCEDURE_DETAILS: whole-cell fluorescence competition binding, displacement of mRSPO1-Fc (~5 nM) from HEK293 cells expressing Myc-LGR5
MEASURED_QUANTITY: IC50 (nM)
Supply the numeric figure in nM, leaving out any unit text.

Give the reported value of IC50 for this record: recombinant human RSPO1 (ligand, UniProt Q2MKA7 21-263, looked up, Bought from R&D Systems; also called R-spondin 1) SRGIKGKRQRRISAEGSQACAKGCELCSEVNGCLKCSPKLFILLERNDIRQVGVCLPSCPPGYFDARNPDMNKCIKCKIEHCEACFSHNFCTKCKEGLYLHKGRCYPACPEGSSAANGTMECSSPAQCEMSEWSPWGPCSKKQQLCGFRRGSEERTRRVLHAPVGDHAACSDTKETRRCTVRRVPCPEGQKRRKGGQGRRENANRNLARKESKEAGAGSRRRKGQQQQQQQGTVGPLTSAGPA
4

Note down IC50 recorded for recombinant human RSPO3 (ligand, Bought from R&D Systems; also called R-spondin 3) QNASRGRRQRRMHPNVSQGCQGGCATCSDYNGCLSCKPRLFFALERIGMKQIGVCLSSCPSGYYGTRYPDINKCTKCKADCDTCFNKNFCTKCKSGFYLHLGKCLDNCPEGLEANNHTMECVSIVHCEVSEWNPWSPCTKKGKTCGFKRGTETRVREIIQHPSAKGNLCPPTNETRKCTVQRKKCQKGERGKKGRERKRKKPNKGESKEAIPDSKSLESSKEIPEQRENKQQQKKRKVQDKQKSVSVSTVH
2.1

Assign IC50 to the following record: recombinant human RSPO4 (ligand, Bought from R&D Systems; also called R-spondin 4) LNRRKKQVGTGLGGNCTGCIICSEENGCSTCQQRLFLFIRREGIRQYGKCLHDCPPGYFGIRGQEVNRCKKCGATCESCFSQDFCIRCKRQFYLYKGKCLPTCPPGTLAHQNTRECQGECELGPWGGWSPCTHNGKTCGSAWGLESRVREAGRAGHEEAATCQVLSESRKCPIQRPCPGERSPGQKKGRKDRRPRKDRKLDRRLDVRPRQPGLQP
11

Quickly give me recorded IC50 for recombinant human RSPO2 (ligand, UniProt Q6UXX9 22-243, looked up, Bought from R&D Systems; also called R-spondin 2) QGNRWRRSKRASYVSNPICKGCLSCSKDNGCSRCQQKLFFFLRREGMRQYGECLHSCPSGYYGHRAPDMNRCARCRIENCDSCFSKDFCTKCKVGFYLHRGRCFDECPDGFAPLEETMECVEGCEVGHWSEWGTCSRNNRTCGFKWGLETRTRQIVKKPVKDTILCPTIAESRRCKMTMRHCPGGKRTPKAKEKRNKKKKRKLIERAQEQHSVFLATDRANQ
0.5

Values compiled from patent US20130143227A1.
